Where do these numbers come from? They come from the Human Domainome abundance scans (Beltran et al. 2025).

B1: Chromodomain-helicase-DNA-binding protein 4, residues 365 to 417; numbered along this chain, Q14839 (parent)
chain: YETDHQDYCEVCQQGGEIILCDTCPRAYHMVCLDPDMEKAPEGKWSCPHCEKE

# Variants of: B1
# testName: abundance fitness (aPCA) (normalised: wild type 0, dead -1); higher = more abundant; growth selection in yeast, the domain comes from the species named
# assayContext: Homo sapiens
Lab note: compare abundance fitness against -0.2. Equal or greater, write satisfied. Smaller, write not satisfied.

variantCode: T23K
groupLabel: not satisfied

variantCode: Q13P
groupLabel: not satisfied

variantCode: I19N
groupLabel: satisfied

variantCode: P41Q
groupLabel: satisfied

variantCode: M30G
groupLabel: satisfied

variantCode: C32Y
groupLabel: not satisfied

variantCode: P35Y
groupLabel: satisfied

variantCode: Q6S
groupLabel: satisfied

variantCode: D34I
groupLabel: not satisfied

variantCode: C9F
groupLabel: not satisfied

variantCode: Q13I
groupLabel: not satisfied

variantCode: G15F
groupLabel: satisfied

variantCode: D4L
groupLabel: satisfied

variantCode: P48K
groupLabel: not satisfied

variantCode: C9S
groupLabel: not satisfied

variantCode: G43T
groupLabel: not satisfied

variantCode: C47P
groupLabel: not satisfied

variantCode: K52Q
groupLabel: satisfied

variantCode: G43P
groupLabel: not satisfied

variantCode: W45D
groupLabel: not satisfied

variantCode: L20H
groupLabel: satisfied

variantCode: V11G
groupLabel: satisfied
